Target: HEK-293 cells expressing human recombinant adenosine A2A receptor (Homo sapiens)
Sequence (P29274 whole entry): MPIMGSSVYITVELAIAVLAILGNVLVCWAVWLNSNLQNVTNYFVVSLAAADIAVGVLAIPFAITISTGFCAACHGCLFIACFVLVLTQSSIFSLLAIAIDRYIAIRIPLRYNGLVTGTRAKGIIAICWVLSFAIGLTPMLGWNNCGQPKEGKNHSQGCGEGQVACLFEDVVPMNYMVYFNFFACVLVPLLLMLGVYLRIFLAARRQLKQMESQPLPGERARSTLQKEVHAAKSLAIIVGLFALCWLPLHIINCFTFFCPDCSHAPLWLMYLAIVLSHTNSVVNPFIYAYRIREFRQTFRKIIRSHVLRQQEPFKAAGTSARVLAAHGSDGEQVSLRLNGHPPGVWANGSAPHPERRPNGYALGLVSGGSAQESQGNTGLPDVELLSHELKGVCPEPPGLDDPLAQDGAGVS
Assay: cAMP assay (Assay 2), A2A receptor
Details: HEK-293 cells expressing human A2A receptor
reported.endpoint: IC50 (µM)
Answers are plain numbers, in µM.

- compound: "CC(C)(O)c1cccc(Cn2cc(-c3nc(-c4ccc5ncccc5c4)c(-c4ccccc4)nc3N)nn2)n1 [compound 102]"
  IC50 / µM: 0.0196
- compound: "Cc1ccn(-c2nc(N)c(OCc3cccc(C(C)(C)O)n3)nc2-c2cc(Cl)c3ncccc3c2)n1 [compound 1]"
  IC50 / µM: 0.164
- compound: "CC(C)(O)c1cccc(COc2nc(-c3cc(Cl)c4ncccc4c3)c(-c3ccc(F)cc3)nc2N)n1 [Compound No. 58]"
  IC50 / µM: 0.0184

Ask | Provide the documented IC50 with HEK-293 cells expressing human recombinant adenosine A2A receptor (Homo sapiens) as the system for CC(C)(O)c1cccc(COc2nc(-c3ccc4ncccc4c3)c(-c3ccccc3)nc2N)n1 [compound 2]
Reply | 0.0151

###

Target: adenosine A1 (human) membrane (Homo sapiens)
Construct: purchased PerkinElmer ES-010-M400UA
Sequence (P30542 whole entry): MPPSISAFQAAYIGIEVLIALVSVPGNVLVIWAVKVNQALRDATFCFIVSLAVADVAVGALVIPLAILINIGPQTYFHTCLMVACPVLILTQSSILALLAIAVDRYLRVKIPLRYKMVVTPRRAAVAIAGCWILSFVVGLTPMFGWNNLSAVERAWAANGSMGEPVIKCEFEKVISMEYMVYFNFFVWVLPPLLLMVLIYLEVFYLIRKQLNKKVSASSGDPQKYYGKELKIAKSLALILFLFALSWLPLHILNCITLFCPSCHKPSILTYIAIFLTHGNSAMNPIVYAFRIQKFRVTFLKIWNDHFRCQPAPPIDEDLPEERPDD
Assay: A1 adenosine receptor radioligand binding assay ([3H] DPCPX)
Conditions: compound at 200 nM, radioligand [3H] DPCPX 1 nM
reported.endpoint: inhibition at 0.2 µM (%)
Numbers only, in %.

Here is how some molecules turned out for inhibition at 0.2 µM.
- molecule: "C[C@H](c1ccccn1)N(C)C(=O)c1nc(-c2ccc3ncccc3c2)c(-c2ccccc2)nc1N [compound 119]"
  inhibition at 0.2 µM, %: 49
- molecule: "C[C@@H](c1ccccn1)N(C)C(=O)c1nc(-c2ccc3ncccc3c2)c(-c2ccccc2)nc1N [compound 120]"
  inhibition at 0.2 µM, %: 90
- molecule: "CC(NC(=O)c1nc(-c2ccc3ncccc3c2)c(-c2ccccc2)nc1N)c1ccccc1 (centres unmarked) [compound 121]"
  inhibition at 0.2 µM, %: 68
- molecule: "CC(C)(O)c1cccc(COc2nc(-c3cc(Cl)c4ncccc4c3)c(-c3ccc(F)cc3)nc2N)n1 [Compound No. 58]"
  inhibition at 0.2 µM, %: 85

Then there is this molecule:
Ask | Given the entry CC(C)(O)c1cccc(Cn2cc(-c3nc(-c4ccc5ncccc5c4)c(-c4ccccc4)nc3N)nn2)n1 [compound 102] , what inhibition at 0.2 µM was observed with adenosine A1 (human) membrane (Homo sapiens)?
Reply | 97

###

Reported IC50 for target or system adenosine A2a (human) membrane (Homo sapiens), by entry.
One number for each entry, in nM.

- compound: "C[C@@H](c1ccccn1)N(C)C(=O)c1nc(-c2ccc3ncccc3c2)c(-c2ccccc2)nc1N [compound 120]"
  assay.result: 65

We next turn to a different compound, shown below.
Ask | Entry under review: CC(NC(=O)c1nc(-c2ccc3ncccc3c2)c(-c2ccccc2)nc1N)c1ccccc1 (centres unmarked) [compound 121] . Reported IC50?
Reply | 2.1

###

Kindly supply the reported IC50 values for the records listed here.
Target: HEK-293 cells expressing human recombinant A1 receptor (Homo sapiens, UniProt P30542)
Sequence (P30542 whole entry): as the sequence (P30542 whole entry) above
Test: cAMP assay (Assay 2), A1 receptor
Settings: HEK-293 cells expressing A1 receptor
Description: The functional activity of compounds was tested using Assay 2 below, to detect the presence of cAMP. Assay 1 is an alternative assay for this purpose. […] Assay 2 (Table B2): This assay used HEK-293 cells expressing human recombinant adenosine A2A receptor (or, alternatively, A1 receptor) that were grown prior to the test in media without antibiotic. […] Plates were read on EnVision.
Answers are plain numbers, in nM.

The following compounds have reported results that may help.
- molecule: "CC(C)(O)c1cccc(COc2nc(-c3ccc4ncccc4c3)c(-c3ccccc3)nc2N)n1"
  IC50 / nM: 32.3
- molecule: "CC(C)(O)c1cccc(Cn2cc(-c3nc(-c4ccc5ncccc5c4)c(-c4ccccc4)nc3N)nn2)n1"
  IC50 / nM: 8.7

Lab note: next compound to report on.
Ask | May I ask what IC50 has been recorded for `CC(C)(O)c1cccc(COc2nc(-c3cc(Cl)c4ncccc4c3)c(-c3ccc(F)cc3)nc2N)n1` ?
Reply | 92.7
